- SYSTEM UNDER TEST: Nuclear receptor subfamily 1 group I member 2 (Homo sapiens)
- TEST DESCRIPTION: Human pregnane X receptor (PXR) small molecule agonists, qHTS assay (AID 1346982); further: nearly all actives have a fitted effect of over 35% in size
- TEST CONTEXT: PXR-Luc HepG2, CYP3A4 luciferase reporter, 24 h; series mostly up to 92.4 µM
Results filed as inconclusive are left out. Calls of active or inactive are those of the source. The call rests on the fitted dose curve; in most records, active means well fitted activation curve with a large enough effect in the repeat runs; inconclusive means weak or mixed curves; inactive means no such curve, though single readings can be large or run the other way.
The reply should be one of these categories: active, inactive

As a guide, the following entries are already answered.
-- ask Tell me the assay call for CC(CCO)CC(C)(C)C (stereo unspecified) please.
-- reply inactive

-- ask Tell me the assay call for C=Cc1ccc(C)cc1 please.
-- reply inactive

-- ask Tell me the assay call for O=C(O)c1ccccc1C(=O)O please.
-- reply inactive

-- ask Tell me the assay call for O=C(O)c1cc2ccccc2cc1O please.
-- reply active

-- ask Tell me the assay call for Clc1ccccn1 please.
-- reply inactive

New cases:
-- ask Tell me the assay call for CC(C)CC(=O)CC(C)CC(C)C (stereo unspecified) please.
-- reply inactive

-- ask Tell me the assay call for O=C(O)CCCCCCCCC(=O)O please.
-- reply inactive

-- ask Tell me the assay call for O=c1[nH]cnc2[nH]ncc12 please.
-- reply inactive

-- ask Tell me the assay call for CC(C)OC(=O)COc1ccc(Cl)cc1Cl please.
-- reply inactive

-- ask Tell me the assay call for Nc1ccc(Cl)c(N)c1 please.
-- reply active

-- ask Tell me the assay call for C=C(C)CNCC please.
-- reply inactive

-- ask Tell me the assay call for CCCCCCCC=O please.
-- reply inactive

-- ask Tell me the assay call for Cc1ccc([N+](=O)[O-])cc1S(=O)(=O)O please.
-- reply inactive

-- ask Tell me the assay call for CCNC(=S)NCC please.
-- reply inactive

-- ask Tell me the assay call for CCCCCC(=O)O please.
-- reply inactive

-- ask Tell me the assay call for CC1(C)OC[C@@H]2O[C@@]3(C(=O)O)OC(C)(C)O[C@H]3[C@@H]2O1 please.
-- reply inactive

Reference source: PubChem BioAssay (Tox21)
